# Test system: RPMI-8226 cells
# PROCEDURE TEXT: Cytotoxic activity, CellTiter-Glo Luminescent Cell Viability Assay
# COND: Homo sapiens, RPMI-8226
MEASUREMENT KIND: IC50 (µM)
# number only, unit µM dropped from output

Consider the compound C[C@@H]1C[C@@H]([C@H](O)CC2CC(=O)NC(=O)C2)C(=O)[C@@H](C)C1 [Cycloheximide] . State its measured IC50.
0.153
